assay: Inhibition of advanced glycation end-products formation after 14 days by spectrofluorimetry; format: physicochemical
pIC50: −log10 of the molar value.
Recorded Endpoint: pIC50

molecule=CC1=CC[C@H](O)[C@]2(C)[C@H]1[C@@H](O[C@@H]1O[C@H](CO)[C@@H](O)[C@H](O)[C@H]1O)[C@H](C(C)(C)O)C[C@H]2OC(=O)/C=C/c1ccc(O)cc1 result="< 4.30"
molecule=C/C=C/C#CC#C[C@H](O)CCO result="< 4.30"
molecule="C[C@@H]1O[C@@H](OC[C@H]2O[C@@H](Oc3c(-c4ccc(O)cc4)oc4cc(O)cc(O)c4c3=O)[C@H](O)[C@@H](O)[C@@H]2O)[C@H](O)[C@H](O)[C@H]1O [NICOTIFLOROSIDE]" result="< 4.30"
molecule=O=c1c(O[C@@H]2O[C@H](CO)[C@@H](O)[C@H](O)[C@H]2O)c(-c2ccc(O)c(O)c2)oc2cc(O)cc(O)c12 result=5.04
molecule=C=C(CO[C@@H]1O[C@H](CO)[C@@H](O)[C@H](O)[C@H]1O)[C@H]1Oc2cc(C(C)=O)c(O)cc2[C@@H]1OC result="< 4.30"
molecule=N=C(N)NN result=3.02

----------
Measured pIC50 by item
experiment: Inhibition of advanced glycation end-products formation after 14 days by spectrofluorimetry; type: physicochemical
pIC50: −log10 of the molar value.
Recorded Endpoint: pIC50

compound_smiles=CC[C@H](/C=C/[C@@H](C)[C@H]1CC[C@H]2C3=CC[C@H]4C[C@@H](O)CC[C@]4(C)[C@H]3CC[C@]12C)C(C)C qualifier=< numeric_value=4.30
compound_smiles=O=C(/C=C/c1ccc(O)c(O)c1)O[C@H]1[C@H](O)C[C@](O)(C(=O)O)C[C@H]1OC(=O)/C=C/c1ccc(O)c(O)c1 qualifier== numeric_value=5.19
compound_smiles=O=c1c(O[C@@H]2OC[C@H](O)[C@H](O)[C@H]2O)c(-c2ccc(O)c(O)c2)oc2cc(O)cc(O)c12 qualifier== numeric_value=5.05
compound_smiles=C/C=C/C#CC#CCCCO[C@@H]1O[C@H](CO)[C@@H](O)[C@H](O)[C@H]1O qualifier=< numeric_value=4.30
